Experimental protocol: NCI Yeast Anticancer Drug Screen. Data for the mlh1 rad18 strain (AID 175)
Stated conditions: S. cerevisiae mlh1 rad18 strain growth inhibition, hits give high values; at 50.0 µM unless noted
About 79,000 compounds went through this panel and 15% of them were active in at least one assay; those are over-represented in the sample as a whole.
Recorded endpoint: growth inhibition (%)
The reply should be a number in %, with the unit left off.

Example cases with answers are listed next.
Cc1ccc(O)c(C=NCCN=Cc2cc(C)ccc2O)c1.[Zn]    -32.4
COc1ccc2[nH]c3ccccc3c(=O)c2c1    -6.65
CCOc1c(N=Nc2ccc(Cl)cc2Cl)c(C)nn1C(=S)SC    19.6
CCOC(=O)C(C)(c1[nH]c2ccccc2c1C)c1[nH]c2ccccc2c1C    -5.7
O/N=C/c1ccco1    16.1

Field: next compound
response.value for COC(=O)c1[nH]c(=O)c2ccc([N+](=O)[O-])cc2c1O (field: growth inhibition) = -0.4

----------
Experimental protocol: NCI Yeast Anticancer Drug Screen. Data for the bub3 strain (AID 167)
Stated conditions: S. cerevisiae bub3 mutant strain, hits give high values; at 50.0 µM unless noted
This is part of a sample that, as a whole, favours compounds with a hit. Of some 79,000 tested, about 15% had one in any assay. Calls of active or inactive are those of the source. No stated cut-off is given here; in the data, active means growth inhibition above about 70%; inactive means the rest.
Reported growth inhibition values are given for each entry in this list.

O=[N+]([O-])c1cccc(S/N=C/c2ccccc2O)c1    99.2% (active)
N/N=C1/CCN2CCCc3cccc1c32    -19.4% (inactive)
O=C(O)Nc1ccc(I)cc1    -4.1% (inactive)
O=C(ON=C1C=CC(=NOC(=O)c2ccccc2)C=C1)c1ccccc1    1.15% (inactive)

response.value for CC(C)c1cccc(C(C)C)c1NC(=O)C(=O)Cc1nc2ccc([N+](=O)[O-])cc2[nH]c1=O (field: growth inhibition) = 24.6% (inactive)

response.value for N#Cc1c(-c2ccccc2Cl)c(-c2ccccc2Cl)nn(CCO)c1=O (field: growth inhibition) = 10.2% (inactive)

response.value for O=C(Nc1cccc(Cl)c1)Oc1c([N+](=O)[O-])cc(Cl)cc1[N+](=O)[O-] (field: growth inhibition) = 0.15% (inactive)

response.value for COc1cccc(Br)n1 (field: growth inhibition) = -8.85% (inactive)

response.value for CC(=O)NNc1nc(C)c(C(/C=C/c2ccc(Cl)cc2)=N/NC(=O)C[N+](C)(C)C)s1 (field: growth inhibition) = 21.4% (inactive)

response.value for O=Nc1c(S(=O)(=O)O)cc2cc(S(=O)(=O)O)ccc2c1O (field: growth inhibition) = 23.1% (inactive)

response.value for C[N+]1(Cc2csc(-c3ccc(Cl)cc3)n2)CCCC1 (field: growth inhibition) = -5.7% (inactive)

response.value for CC(=O)Nc1cccc(OC(=O)Nc2ccc(F)c(Cl)c2)c1 (field: growth inhibition) = 56.8% (inactive)

response.value for COc1ccc(-c2cc(=O)c3c(O)c(OC)c(O)cc3o2)cc1O (field: growth inhibition) = 37.5% (inactive)

response.value for Cc1ccc(NP(=O)(Nc2ccc(C)cc2)c2ccc([N+](=O)[O-])cc2)cc1 (field: growth inhibition) = 85.3% (active)

response.value for O=C(O)CCCC1CCC(=O)CC1 (field: growth inhibition) = 0.5% (inactive)

response.value for CCCCc1cc(C(=O)OC/C(C)=N/NC(N)=O)c2ccccc2n1 (field: growth inhibition) = 35.8% (inactive)

response.value for CCN(CC)C(=O)/C=C/c1ccccc1 (field: growth inhibition) = 1.7% (inactive)

response.value for S=C(Nc1ccc2c(c1)oc1ccccc12)c1cccs1 (field: growth inhibition) = -9.6% (inactive)

response.value for C=C[C@@]1(C)C=C2CC[C@@H]3[C@](C)(CCC[C@@]3(C)C(=O)O)[C@H]2CC1 (field: growth inhibition) = 35.1% (inactive)

response.value for CSc1ccc(NC(=O)Nc2cc(C)ccc2N=Nc2ccc(C)cc2)cc1 (field: growth inhibition) = -4.75% (inactive)

response.value for N=C(N)CCNC(=O)C1CCC(N)=N1 (centres undefined) (field: growth inhibition) = -28.1% (inactive)

response.value for CCN(CC)c1ccc(/C=C(\C)c2nc3ccc(C)cc3[nH]2)cc1 (field: growth inhibition) = -9.3% (inactive)

response.value for O=Cc1ccc(OC(=O)Nc2ccc([N+](=O)[O-])cc2)cc1 (field: growth inhibition) = 46.6% (inactive)

response.value for CN=Nc1c(O)[nH]c2ccc(C)cc12 (field: growth inhibition) = -8.15% (inactive)

----------
Experimental protocol: NCI Yeast Anticancer Drug Screen. Data for the mlh1 rad18 strain (AID 175)
Stated conditions: S. cerevisiae mlh1 rad18 strain growth inhibition; at 50.0 µM unless noted
This is part of a sample that, as a whole, favours compounds with a hit. Of some 79,000 tested, about 15% had one in any assay. Activity calls are given as the source filed them. No stated cut-off is given here; in the data, active means growth inhibition above about 70%; inactive means the rest.
Outcomes you can answer with include only these: active, inactive

Check out these entries, answers already filled in.
c1nc2c([nH]1)CCNC2c1ccc(C2NCCc3[nH]cnc32)cc1 (stereo not drawn)    inactive
CCCC(=O)N(C(C)C)C(C)C    inactive
O=C(O)CC(c1ccccc1)C(CC(=O)O)c1ccccc1 (stereo not drawn)    inactive

Q: Could you kindly confirm the outcome this assay logged for O=C(O)C1CCC(=O)N1Cc1c[nH]c2ccccc12 (stereo not drawn) ?
A: inactive

Q: Could you kindly confirm the outcome this assay logged for S=C(Nc1ccc2c(c1)oc1ccccc12)c1cccs1 ?
A: inactive

Q: Could you kindly confirm the outcome this assay logged for CC(=O)OCC1OC(OC(C)=O)C(NC(=O)c2ccccc2)C(OC(C)=O)C1OC(C)=O (stereo not drawn) ?
A: inactive

Q: Could you kindly confirm the outcome this assay logged for O=C(O)c1ccc(NCC(O)COc2ccc([N+](=O)[O-])cc2)cc1 (stereo not drawn) ?
A: inactive

----------
Experimental protocol: NCI Yeast Anticancer Drug Screen. Data for the mec2-1 strain (AID 157)
Stated conditions: S. cerevisiae mec2-1 strain, hits give high values; at 50.0 µM unless noted
Compounds without any hit were thinned out: in the full panel of roughly 79,000, 15% have a hit.
Recorded endpoint: growth inhibition (%)
The reply should be a number in %, with the unit left off.

Example cases with answers are listed next.
COc1ccc(OC)c(NC(=O)CCCC(=O)C(C#N)c2ccc(CC#N)cc2)c1 (stereo not drawn)    -17.6
NNC(=O)Oc1cccc2ccccc12    19.3
NNC(=O)c1nc2ccccc2s1    4.75
COc1ccccc1N=C(N)N/N=C/c1c[nH]c2ccccc12    -8.85
CCSC(SCC)C(NC(C)=O)C(O)C(O)C(O)CO (stereo not drawn)    3.45

response.value for COC(=O)c1ccc(N=NN(C)CN=[N+]=[N-])cc1 (field: growth inhibition) = 19.7

response.value for Cc1[nH]n(C(N)=S)c(=O)c1N=Nc1ccc([N+](=O)[O-])cc1Cl (field: growth inhibition) = 6

response.value for COc1cc(C(CC(=O)O)C(=O)O)c([N+](=O)[O-])cc1OC (stereo not drawn) (field: growth inhibition) = 1.1

response.value for CN(C)CC1(C)CC/C(=C\c2ccc3c(c2)OCO3)C1=O (stereo not drawn) (field: growth inhibition) = 30.4

response.value for OCC1OC(n2cnc3c2NC=NC[C@H]3O)C(O)C1O (stereo partly drawn) (field: growth inhibition) = -3.8

----------
Reported growth inhibition values are given for each entry in this list.
Experimental protocol: NCI Yeast Anticancer Drug Screen. Data for the bub3 strain (AID 167)
Stated conditions: S. cerevisiae bub3 mutant strain, hits give high values; at 50.0 µM unless noted
About 79,000 compounds went through this panel and 15% of them were active in at least one assay; those are over-represented in the sample as a whole.
The reply should be a number in %, with the unit left off.

COc1cc2c3c([nH]c2c(OC)c1OC)CCN(Cc1ccccc1)C3    -0.7
C/C(=N/NC(N)=S)c1ccc([N+](=O)[O-])cc1    -12.4
O=NN1C(c2ccccc2)CNC(=O)CC1c1ccccc1 (configuration not stated)    20.6
FC(F)(F)c1cc(NC(=S)SCc2ccc3c(c2)OCO3)ccc1Cl    59.2
Cc1ccnc(NC#N)n1    19.4
Nc1cccc(S(=O)(=O)NNc2cc(Cl)ccc2Cl)c1    98.3
COC(=O)C1(C)C=C(Nc2ccccc2)C(=O)N1c1ccccc1 (configuration not stated)    23.4
CCc1nc(N)nc(N)c1-c1ccc(NC2CCCCC2)c([N+](=O)[O-])c1    -6.05
C/C=C/C(=O)Oc1ccc[nH]c1=O    11.8
O=C(CCC(=O)Nc1ccccc1C(F)(F)F)N/N=C1\C(=N\NC(=O)CCC(=O)Nc2ccccc2C(F)(F)F)C(c2ccc3c(c2)OCO3)Oc2ccccc21 (configuration not stated)    -5.05

Field: next compound
response.value for CN(C)C(n1cc2c(c1)-c1ccc(Cl)cc1C(c1ccccc1F)=NC2)n1cc2c(c1)-c1ccc(Cl)cc1C(c1ccccc1F)=NC2 (field: growth inhibition) = -7.55
